Documented half-life at 1 μM across a set of compounds
# test_method_notes: Determination of metabolic stability with human liver microsomes
# experimental_setup: human, pooled human liver microsomes, pH 7.6

Before answering, review these 8 worked examples.
compound: N#CC(Cc1ccc(-c2ccc(C(N)=O)cc2)cc1F)NC(=O)[C@H]1N[C@@H]2CC[C@H]1C2 (stereo partly drawn)
half-life at 1 μM: > 2.17 h
--
compound: N#Cc1cc(F)c2[nH]c(=O)c3cc(CC(C#N)NC(=O)[C@H]4N[C@@H]5CC[C@H]4C5)ccc3c2c1 (stereo partly drawn)
half-life at 1 μM: > 2.17 h
--
compound: N#C[C@H](Cc1ccc(-c2ccc3c(c2)COC3=O)cc1F)NC(=O)[C@H]1N[C@@H]2CC[C@H]1C2
half-life at 1 μM: 0.95 h
--
compound: Cn1ccc(-c2ccc(C[C@@H](C#N)NC(=O)[C@H]3N[C@@H]4CC[C@H]3C4)c(F)c2)cc1=O
half-life at 1 μM: > 2.17 h
--
compound: CC1(C)OC(=O)c2ccc(-c3ccc(C[C@@H](C#N)NC(=O)[C@H]4N[C@@H]5CC[C@H]4C5)c(F)c3)cc21
half-life at 1 μM: 1.58 h
--
compound: CC(=O)c1cn(-c2ccc(C[C@@H](C#N)NC(=O)[C@H]3N[C@@H]4CC[C@H]3C4)c(F)c2)nn1
half-life at 1 μM: > 2.17 h
--
compound: COCc1cn(-c2ccc(C[C@@H](C#N)NC(=O)[C@H]3N[C@@H]4CC[C@H]3C4)c(F)c2)nn1
half-life at 1 μM: > 2.17 h
--
compound: CS(=O)(=O)c1cccc(-c2ccc(CC(C#N)NC(=O)[C@H]3N[C@@H]4CC[C@H]3C4)c(F)c2)c1 (stereo partly drawn)
half-life at 1 μM: > 2.17 h

Data request: # lookup: half-life at 1 μM of `CCn1nccc1-c1ccc(C[C@@H](C#N)NC(=O)[C@H]2N[C@@H]3CC[C@H]2C3)c(F)c1`
Data returned: > 2.17 h

Data request: Reported half-life at 1 μM for `CS(=O)(=O)c1ccc(-c2ccc(C[C@@H](C#N)NC(=O)[C@H]3N[C@@H]4CC[C@H]3C4)c(F)c2)cc1C#N` : what is it?
Data returned: > 2.17 h

Data request: Sample `CNc1nc2cc(-c3ccc(C[C@@H](C#N)NC(=O)[C@H]4N[C@@H]5CC[C@H]4C5)c(F)c3)ccc2n1C` — what was its half-life at 1 μM?
Data returned: > 2.17 h

Data request: Any idea what its half-life at 1 μM is? The compound is CN1CCC2CN(c3ccc(C[C@@H](C#N)NC(=O)[C@H]4N[C@@H]5CC[C@H]4C5)c(F)c3)CC21 (stereo partly drawn)
Data returned: > 2.17 h

Data request: Any idea what its half-life at 1 μM is? The compound is `N#C[C@H](Cc1ccc(N2CCN3CCOC[C@H]3C2)cc1F)NC(=O)[C@H]1N[C@@H]2CC[C@H]1C2`
Data returned: > 2.17 h

Data request: Item under review: `CCN1CCN(c2ccc(C[C@@H](C#N)NC(=O)[C@H]3N[C@@H]4CC[C@H]3C4)c(F)c2)CC1` . Reported half-life at 1 μM?
Data returned: > 2.17 h

Data request: What does the data say about its half-life at 1 μM? Entry: `COc1ccc(-c2cn(-c3ccc(C[C@@H](C#N)NC(=O)[C@H]4N[C@@H]5CC[C@H]4C5)c(F)c3)nn2)cc1OC`
Data returned: > 2.17 h

Data request: I have this compound here, COCCN1C(C)CN(c2ccc(C[C@@H](C#N)NC(=O)[C@H]3N[C@@H]4CC[C@H]3C4)c(F)c2)CC1C (stereo partly drawn) , and I need its recorded half-life at 1 μM.
Data returned: 1.52 h

Data request: Record request: half-life at 1 μM value, item `CN1CCN(C(=O)c2ccc(-c3ccc(C[C@@H](C#N)NC(=O)[C@H]4N[C@@H]5CC[C@H]4C5)c(F)c3)cc2)CC1`
Data returned: > 2.17 h

Data request: Value lookup for half-life at 1 μM; key = `CN1CCN(C(=O)c2coc(-c3ccc(C[C@@H](C#N)NC(=O)[C@H]4N[C@@H]5CC[C@H]4C5)c(F)c3)c2)CC1`
Data returned: 1.4 h

Data request: Returns the measured half-life at 1 μM for the input compound. Input: `CN1C(=O)Cc2ccc(-c3ccc(C[C@@H](C#N)NC(=O)[C@H]4N[C@@H]5CC[C@H]4C5)c(F)c3F)cc21`
Data returned: 1.83 h

Data request: Which half-life at 1 μM is listed for `N#Cc1cc(F)c2[nH]c(=O)c3cc(C[C@@H](C#N)NC(=O)[C@H]4N[C@@H]5CC[C@H]4C5)c(F)cc3c2c1` ?
Data returned: > 2.17 h

Data request: Which half-life at 1 μM value is on record for `N#C[C@H](Cc1ccc(-c2cnn(C[C@H]3CCCO3)c2)cc1F)NC(=O)[C@H]1N[C@@H]2CC[C@H]1C2` ?
Data returned: > 2.17 h
